parameter.measured: melting point

# smiles.record, parameter.measured, result
records = [
    ("CCOC(=O)c1cnc2ccc(C)cc2c1Sc1nnc(-c2ccccc2)c(-c2ccccc2)n1", "melting point", "210 to 212 °C"),
    ("CC1CCN(c2cc(Sc3nnc(-c4ccccc4)c(-c4ccccc4)n3)ncn2)CC1", "melting point", "250 to 252 °C"),
    ("CCOC(=O)c1cnc2ccc(OC)cc2c1Sc1nnc(-c2ccccc2)c(-c2ccccc2)n1", "melting point", "200 to 202 °C"),
    ("Clc1ccc2c(N3CCN(c4cc(Sc5nnc(-c6ccccc6)c(-c6ccccc6)n5)ncn4)CC3)ccnc2c1", "melting point", "260 to 262 °C"),
    ("COc1ccc(C(=O)CCSc2nnc(-c3ccccc3)c(-c3ccccc3)n2)cc1OC", "melting point", "210 to 212 °C"),
    ("Cc1cc(N2CCN(c3cc(Sc4nnc(-c5ccccc5)c(-c5ccccc5)n4)ncn3)CC2)n2ncnc2n1", "melting point", "280 to 285 °C"),
    ("N#Cc1cccnc1N1CCN(c2cc(Sc3nnc(-c4ccccc4)c(-c4ccccc4)n3)ncn2)CC1", "melting point", "250 to 252 °C"),
    ("c1ccc(-c2nnc(Sc3cc(N4CCOCC4)ncn3)nc2-c2ccccc2)cc1", "melting point", "198 to 200 °C"),
    ("O=C(CSc1nnc(-c2ccccc2)c(-c2ccccc2)n1)Nc1cc(=O)oc2ccccc12", "melting point", "200 to 202 °C"),
    ("Clc1ccc2c(Sc3nnc(-c4ccccc4)c(-c4ccccc4)n3)ccnc2c1", "melting point", "250 to 252 °C"),
]
